Listed here: items and their measured Inhibation.
- SYSTEM: α-glucosidase (Saccharomyces cerevisiae, UniProt P53341)
- Construct: the yeast form of α-glucosidase, which was extracted from Saccharomyces cerevisiae; purchased Sigma-Aldrich; host or cells: Saccharomyces cerevisiae (extracted)
- Sequence (P53341 whole entry): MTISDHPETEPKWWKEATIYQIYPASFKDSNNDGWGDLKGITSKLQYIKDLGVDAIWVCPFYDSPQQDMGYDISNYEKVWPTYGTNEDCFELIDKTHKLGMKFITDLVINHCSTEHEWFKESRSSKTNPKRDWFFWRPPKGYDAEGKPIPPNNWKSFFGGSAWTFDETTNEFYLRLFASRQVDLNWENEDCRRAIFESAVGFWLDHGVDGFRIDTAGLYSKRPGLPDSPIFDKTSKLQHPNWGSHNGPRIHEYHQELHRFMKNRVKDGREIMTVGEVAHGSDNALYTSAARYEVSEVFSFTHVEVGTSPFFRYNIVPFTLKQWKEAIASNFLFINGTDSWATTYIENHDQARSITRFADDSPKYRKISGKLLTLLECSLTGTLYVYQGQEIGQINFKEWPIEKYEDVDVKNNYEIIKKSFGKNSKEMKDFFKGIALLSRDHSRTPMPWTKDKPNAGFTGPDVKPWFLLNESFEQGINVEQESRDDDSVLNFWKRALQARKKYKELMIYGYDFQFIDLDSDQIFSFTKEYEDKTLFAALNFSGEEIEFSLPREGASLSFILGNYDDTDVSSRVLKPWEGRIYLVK
- ASSAY_INFO: Anti-α-glucosidase assay (p-nitrophenyl-α-D-glucopyranoside substrate, absorbance 405 nm)
- Type: biochemical
- CONDITION_SUMMARY: Conc. 60 (unit not given); IC50 determination curve
Output: the number by itself.

These recorded examples may help you get a feel for the data.
{"MOLECULE": "O=C(Cn1cc(COc2ccc(/C=N/Nc3nnc(-c4ccccc4)c(-c4ccccc4)n3)cc2)nn1)Nc1ccc(Br)cc1 [Compound 13k]", "Inhibation": 60}
{"MOLECULE": "O=C(Cn1cc(COc2ccc(/C=N/Nc3nnc(-c4ccccc4)c(-c4ccccc4)n3)cc2)nn1)Nc1ccc(Cl)cc1 [Compound 13j]", "Inhibation": 79}
{"MOLECULE": "COc1ccc(NC(=O)Cn2cc(COc3ccc(/C=N/Nc4nnc(-c5ccccc5)c(-c5ccccc5)n4)cc3)nn2)cc1 [Compound 13f]", "Inhibation": 89}

Prompt: Give its Inhibation value. Item: O=C(Cn1cc(COc2ccc(/C=N/Nc3nnc(-c4ccccc4)c(-c4ccccc4)n3)cc2)nn1)Nc1ccccc1F [Compound 13g]
Completion: 76

Prompt: Would you kindly share the measured Inhibation for Cc1ccc(NC(=O)Cn2cc(COc3ccc(/C=N/Nc4nnc(-c5ccccc5)c(-c5ccccc5)n4)cc3)nn2)c(C)c1 [Compound 13d] ?
Completion: 68

Prompt: Please give the measured Inhibation for this molecule: O=C(Cn1cc(COc2ccc(/C=N/Nc3nnc(-c4ccccc4)c(-c4ccccc4)n3)cc2)nn1)NCc1ccccc1 [Compound 13m]
Completion: 87

Prompt: Which Inhibation is listed for Cc1cccc(NC(=O)Cn2cc(COc3ccc(/C=N/Nc4nnc(-c5ccccc5)c(-c5ccccc5)n4)cc3)nn2)c1 [Compound 13c] ?
Completion: 93

Prompt: Report Inhibation for O=C(Cn1cc(COc2ccc(/C=N/Nc3nnc(-c4ccccc4)c(-c4ccccc4)n3)cc2)nn1)Nc1ccccc1Cl [Compound 13h] please.
Completion: 83

Prompt: I'd like to know its Inhibation. The molecule in question is CCc1ccc(NC(=O)Cn2cc(COc3ccc(/C=N/Nc4nnc(-c5ccccc5)c(-c5ccccc5)n4)cc3)nn2)cc1 [Compound 13e]
Completion: 95

Prompt: Tell me the measured Inhibation of O=C(Cn1cc(COc2ccc(/C=N/Nc3nnc(-c4ccccc4)c(-c4ccccc4)n3)cc2)nn1)Nc1ccccc1 [Compound 13a] , please.
Completion: 89

Prompt: Given the entry O=C(Cn1cc(COc2ccc(/C=N/Nc3nnc(-c4ccccc4)c(-c4ccccc4)n3)cc2)nn1)NCCc1ccccc1 [Compound 13n] , report its measured Inhibation.
Completion: 90

###

Listed here are molecules together with their documented Inhibation.
- SYSTEM: α-glucosidase (Saccharomyces cerevisiae, UniProt P53341)
- Construct: the yeast form of α-glucosidase, which was extracted from Saccharomyces cerevisiae; purchased Sigma-Aldrich; host or cells: Saccharomyces cerevisiae (extracted)
- ASSAY_INFO: Anti-α-glucosidase assay (p-nitrophenyl-α-D-glucopyranoside substrate, absorbance 405 nm)
- Assay type: biochemical
- CONDITION_SUMMARY: Conc. 90 (unit not given); IC50 determination curve
Give your answer as a number; write no unit.

In the examples that follow, each entry is paired with its recorded Inhibation.
{"MOLECULE": "O=C(Cn1cc(COc2ccc(/C=N/Nc3nnc(-c4ccccc4)c(-c4ccccc4)n3)cc2)nn1)Nc1ccccc1[N+](=O)[O-] [Compound 13l]", "Inhibation": 65}
{"MOLECULE": "O=C(Cn1cc(COc2ccc(/C=N/Nc3nnc(-c4ccccc4)c(-c4ccccc4)n3)cc2)nn1)Nc1ccccc1Cl [Compound 13h]", "Inhibation": 86}

In the following, a different molecule is considered.
Prompt: Give its Inhibation value. Item: O=C(Cn1cc(COc2ccc(/C=N/Nc3nnc(-c4ccccc4)c(-c4ccccc4)n3)cc2)nn1)Nc1ccc(Cl)cc1 [Compound 13j]
Completion: 81
